# measured on: hCA I (Homo sapiens)
# Construct: recombinant, cytosolic isoform
# Sequence (P00915 2-261): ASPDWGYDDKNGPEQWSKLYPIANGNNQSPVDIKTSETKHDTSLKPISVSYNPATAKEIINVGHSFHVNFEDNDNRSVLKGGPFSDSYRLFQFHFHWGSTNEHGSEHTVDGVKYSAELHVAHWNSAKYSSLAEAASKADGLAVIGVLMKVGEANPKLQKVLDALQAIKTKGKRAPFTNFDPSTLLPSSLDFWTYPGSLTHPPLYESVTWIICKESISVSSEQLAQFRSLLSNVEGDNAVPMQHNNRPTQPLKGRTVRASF
# protocol: stopped-flow CO2 hydration assay
We begin with a simple list: items and their reported Ki.
Record the value in nM, omitting the unit from your answer.

Observe how each entry below is paired with its result.
NS(=O)(=O)c1ccc(NC(=O)CN2C(=O)/C(=C3/C(=O)Nc4ccc(Cl)cc43)SC2=S)cc1; 35.8
NS(=O)(=O)c1ccc(NC(=O)CN2C(=O)/C(=C\c3ccc([N+](=O)[O-])cc3)SC2=S)cc1; 70.6
NS(=O)(=O)c1ccc(NC(=O)CN2C(=O)/C(=C\c3cccc(Oc4ccccc4)c3)SC2=S)cc1; 471
NS(=O)(=O)c1ccc(NC(=O)CN2C(=O)/C(=C\c3ccc(C(F)(F)F)cc3)SC2=S)cc1; 854
COc1cc(/C=C2/SC(=S)N(CC(=O)Nc3ccc(S(N)(=O)=O)cc3)C2=O)cc(OC)c1OC; 173
NS(=O)(=O)c1ccc(NC(=O)CN2C(=O)/C(=C\c3ccccc3)SC2=S)cc1; 185
CCOc1cc(/C=C2/SC(=S)N(CC(=O)Nc3ccc(S(N)(=O)=O)cc3)C2=O)ccc1O; 22.4

Attention now shifts to the item below.
## Task Find the recorded Ki belonging to `NS(=O)(=O)c1ccc(NC(=O)CN2C(=O)/C(=C3/C(=O)Nc4ccccc43)SC2=S)cc1` and report it.
## Result 41.6

---

# measured on: hCA XII (Homo sapiens)
# Construct: recombinant, tumor-associated transmembrane isoform
# Sequence (O43570 30-289 limits assumed): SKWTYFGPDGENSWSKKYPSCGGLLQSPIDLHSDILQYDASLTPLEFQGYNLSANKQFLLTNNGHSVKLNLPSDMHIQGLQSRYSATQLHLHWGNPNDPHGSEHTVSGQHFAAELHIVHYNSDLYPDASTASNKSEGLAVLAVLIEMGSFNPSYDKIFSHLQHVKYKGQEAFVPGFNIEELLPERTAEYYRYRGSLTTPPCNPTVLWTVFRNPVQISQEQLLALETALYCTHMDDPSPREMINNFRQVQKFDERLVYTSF
# protocol: stopped-flow CO2 hydration assay
# binning rule on Ki: lower (below 30 nM), middle (30 nM to below 50 nM), upper (50 nM or more)

Previously resolved entries follow.
NS(=O)(=O)c1ccc(NC(=O)CN2C(=O)/C(=C3/C(=O)Nc4ccc(Cl)cc43)SC2=S)cc1; lower
NS(=O)(=O)c1ccc(NC(=O)CN2C(=O)/C(=C\c3ccc(C(F)(F)F)cc3)SC2=S)cc1; lower
Cc1ccc2c(c1)/C(=C1/SC(=S)N(CC(=O)Nc3ccc(S(N)(=O)=O)cc3)C1=O)C(=O)N2; middle
NS(=O)(=O)c1ccc(NC(=O)CN2C(=O)/C(=C\c3ccc([N+](=O)[O-])cc3)SC2=S)cc1; lower
NS(=O)(=O)c1ccc(NC(=O)CN2C(=O)/C(=C\c3ccccc3F)SC2=S)cc1; upper

Then there is this compound:
## Task Which of the defined bands does the recorded Ki of `NS(=O)(=O)c1ccc(NC(=O)CN2C(=O)/C(=C\c3ccc(Cl)cc3)SC2=S)cc1` sit within?
## Result lower

---

# measured on: hCA IX (Homo sapiens)
# Construct: recombinant, tumor-associated transmembrane isoform
# protocol: stopped-flow CO2 hydration assay
Please respond with label 1 when measured Ki is strictly beneath 8 nM, and with label 0 in all other cases.

NS(=O)(=O)c1ccc(NC(=O)CN2C(=O)/C(=C\c3ccc([N+](=O)[O-])cc3)SC2=S)cc1 [7u]; label 1

## Task Is the reported Ki for COc1ccc(/C=C2/SC(=S)N(CC(=O)Nc3ccc(S(N)(=O)=O)cc3)C2=O)c(OC)c1 [7p] strictly below 8 nM?
## Result label 0

## Task Same again, this time with COc1cc(OC)c(OC)cc1/C=C1/SC(=S)N(CC(=O)Nc2ccc(S(N)(=O)=O)cc2)C1=O [7o]
## Result label 0

## Task Then this compound: NS(=O)(=O)c1ccc(NC(=O)CN2C(=O)/C(=C\c3ccccc3)SC2=S)cc1 [7a]
## Result label 0

## Task Field entry: NS(=O)(=O)c1ccc(NC(=O)CN2C(=O)/C(=C\c3ccccc3F)SC2=S)cc1 [7d]
## Result label 0

## Task Quick one: Cc1ccc2c(c1)/C(=C1/SC(=S)N(CC(=O)Nc3ccc(S(N)(=O)=O)cc3)C1=O)C(=O)N2 [9b]
## Result label 0
